EC50 listing for selected sequences.
Molecular target: zebrafish APLNR2a (zfAPLNR2a) (Danio rerio, UniProt Q7SZP9)
Construct: the open reading frame (ORF) of each APLNR was amplified from the animal; expressed in transfected cells; host or cells: HEK293
Sequence (Q7SZP9 1-362): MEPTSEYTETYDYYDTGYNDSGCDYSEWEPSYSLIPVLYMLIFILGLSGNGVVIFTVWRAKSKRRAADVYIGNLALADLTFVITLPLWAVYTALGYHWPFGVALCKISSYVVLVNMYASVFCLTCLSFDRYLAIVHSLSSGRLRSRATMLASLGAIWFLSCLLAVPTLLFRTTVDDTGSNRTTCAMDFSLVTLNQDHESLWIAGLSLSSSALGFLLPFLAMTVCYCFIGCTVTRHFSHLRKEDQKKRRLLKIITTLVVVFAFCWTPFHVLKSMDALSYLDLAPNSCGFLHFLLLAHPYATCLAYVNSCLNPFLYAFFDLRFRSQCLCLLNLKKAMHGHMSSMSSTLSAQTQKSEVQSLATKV
Assay: pGL3-CRE-luciferase reporter assay, HEK293 cells expressing zebrafish APLNR2a
Type: cell-based
Conditions: SEM
No end group written: not given here.

{"entry.sequence": "LVRPRGARRGNVRRPGGWRRLRRPRPRLSHKGPMPF [cApelin-36]", "system": "zebrafish APLNR2a (zfAPLNR2a) (Danio rerio, UniProt Q7SZP9)", "units.text": "nM", "EC50": 2.96}
{"entry.sequence": "TPLRQNPARAGRSQRPAGWRRRRPRPRLSHKGPMPF [zfApelin-36]", "system": "zebrafish APLNR2a (zfAPLNR2a) (Danio rerio, UniProt Q7SZP9)", "units.text": "nM", "EC50": 0.89}
